- ASSAY INFO: Human HepG2 cell viability assay in 384 well format
- Format: toxicity, cell-based
- Parameters: dose 125 nL, time 70.5 hour; concentration not given beside the values
- CONDITION: HepG2 cells, read-out: Inhibition
PROPERTY LABEL: cytotoxicity at 70.5 h
Express your answer as a number followed by its unit.

>  <MOLECULE>
CCOC(=O)CNC(=O)C1OC(c2ccccc2)=NN1C(C)=O (stereo not drawn)

>  <cytotoxicity at 70.5 h>
-6.97%

$$$$

State recorded cytotoxicity at 70.5 h for all listed molecules.
1. NC(=O)Nc1cccc(CNC(=O)CCCOCc2ccccc2)c1
2. CNc1cc(C2CCCN2Cc2ccc(OCC(=O)O)cc2)ccn1 (stereo not drawn)

1. 2.63%
2. -5.44%

State recorded cytotoxicity at 70.5 h for all listed molecules.
1. Cc1ccc(CN2CC[C@H]3NC(=O)CC[C@@H]32)o1
2. COc1ccccc1C1CNC(=O)c2nc(-c3cn(C)nc3C)[nH]c2C1 (stereo not drawn)
3. c1ccc(-c2nnc3n2CCN(Cc2ccc4c(c2)OCCO4)C3)cc1
4. CCN(Cc1cccc2c1OCO2)C(=O)Nc1ccccn1
5. COCCO[C@@H]1C[C@H]2CN(C(=O)c3cccnc3)CCN2C1
6. O=C(c1cc(-c2cccnc2)[nH]n1)N1CCCC(Cc2ccccn2)C1 (stereo not drawn)
7. CCc1n[nH]c(C2CN(CCc3ccncc3)CCO2)n1 (stereo not drawn)
8. O=C(NCc1ccccn1)N(Cc1ccc(F)cc1F)C1CC1

-6.53%
8.73%
26.9%
-9.07%
-6.81%
9.07%
-7.11%
-17.3%

---

Assign cytotoxicity at 70.5 h to each entry below.
- ASSAY INFO: Human HepG2 cell viability assay in 384 well format
- Format: toxicity, cell-based
- Design: dose 125 nL, time 70.5 hour; concentration not given beside the values
- CONDITION: HepG2 cells, read-out: Inhibition
Express your answer as a number followed by its unit.

Here are 6 compounds together with their reported answers.
>  <COMPOUND>
Cn1c(=O)c2c(n3ncnc13)NC(=O)CC2c1cccc(F)c1 (stereo unspecified)

>  <cytotoxicity at 70.5 h>
-11.8%

$$$$
>  <COMPOUND>
CC(C)(C)c1nc(CN2CCc3onc(-c4cccc(F)c4)c3C2)no1

>  <cytotoxicity at 70.5 h>
-12.1%

$$$$
>  <COMPOUND>
CCCc1ccc2oc(C(=O)N3CCN(CCC(N)=O)CC3)c(C)c2c1

>  <cytotoxicity at 70.5 h>
19.5%

$$$$
>  <COMPOUND>
COc1ccc(-c2nnsc2C(=O)N2CCN(C(C)=O)CC2)cc1

>  <cytotoxicity at 70.5 h>
-12.8%

$$$$
>  <COMPOUND>
Cc1cc(C)nc(CCNC(=O)C(c2ccc(F)cc2)N(C)C)n1 (stereo unspecified)

>  <cytotoxicity at 70.5 h>
30.5%

$$$$
>  <COMPOUND>
Cc1cc(F)ccc1CN1CCCC2(C1)OCCO2

>  <cytotoxicity at 70.5 h>
-3.36%

$$$$

State recorded cytotoxicity at 70.5 h for all listed compounds.
1. Cc1ccccc1C(=O)NCCC(=O)NS(=O)(=O)c1cccnc1
2. CCCc1cc(N2CCC(N[C@H]3CC[C@H](O)CC3)CC2)nc(C)n1
3. Cn1cnnc1SCC(=O)NC1CC(=O)N(CCc2ccccc2)C1 (stereo unspecified)
4. CC(C)(C)c1noc(CCCC(=O)N2CCNC(=O)CC2)n1

19.3%
-4.54%
-8.79%
-6.5%

Reported cytotoxicity at 70.5 h ( COc1ccnc(N2CCN(C(=O)CN3CCOCC3)CC2)n1 ) = 8.59%
